target: T1, vascular endothelial growth factor receptor 2 (UniProt P35968 20-764, limits assumed); experiment: ELISA, binding affinity to VEGFR2
T1 construct: also called VEGFR2; kinase insert domain receptor
T1 sequence (P35968 20-764 limits assumed): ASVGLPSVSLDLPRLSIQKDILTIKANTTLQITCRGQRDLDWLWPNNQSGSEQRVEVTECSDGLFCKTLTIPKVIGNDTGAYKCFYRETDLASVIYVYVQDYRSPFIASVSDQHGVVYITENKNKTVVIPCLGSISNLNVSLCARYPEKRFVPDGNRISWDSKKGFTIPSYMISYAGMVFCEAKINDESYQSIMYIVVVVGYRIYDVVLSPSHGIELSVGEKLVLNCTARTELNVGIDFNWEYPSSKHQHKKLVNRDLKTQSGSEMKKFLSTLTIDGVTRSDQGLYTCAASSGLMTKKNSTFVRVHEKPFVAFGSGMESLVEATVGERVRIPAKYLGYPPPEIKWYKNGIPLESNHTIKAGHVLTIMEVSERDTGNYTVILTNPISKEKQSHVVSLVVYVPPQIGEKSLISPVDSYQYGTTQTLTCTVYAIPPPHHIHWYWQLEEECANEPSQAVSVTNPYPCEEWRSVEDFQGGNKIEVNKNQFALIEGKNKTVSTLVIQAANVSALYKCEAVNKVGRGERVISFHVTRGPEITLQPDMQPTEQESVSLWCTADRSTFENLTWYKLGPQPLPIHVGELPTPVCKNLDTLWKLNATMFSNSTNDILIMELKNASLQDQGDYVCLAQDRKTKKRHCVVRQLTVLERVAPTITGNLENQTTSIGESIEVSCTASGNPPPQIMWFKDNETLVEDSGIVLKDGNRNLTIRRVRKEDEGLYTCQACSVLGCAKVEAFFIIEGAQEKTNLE
pIC50 overview
Please report pIC50 as the negative decimal logarithm of the molar concentration, giving only the number.

Specify measured pIC50 for C7-SL1-LL3-His (designed binder, not shown: small tags and cut ends, Designed disulfide bonds Cys8-Cys89 and Cys39-Cys67., His-tagged C7 variant with two introduced disulfide bonds) VSDVPRDCEVVAATPTSLLISWRHPHFPTRYYRITYGECGGNSPVQEFTVPLQPPTATISGLKPGVCYTITVYAVTDGRNGRLLSIPICINYRT .
7.72

Specify measured pIC50 for C7-SL3-His (designed binder, Designed intramolecular disulfide bond Cys37-Cys45 (printed as G38/V46 in the Met-included numbering)., His-tagged C7 variant with one introduced disulfide bond; not shown: N-terminal Met and C-terminal His tag of the expressed construct) VSDVPRDLEVVAATPTSLLISWRHPHFPTRYYRITYCETGGNSPCQEFTVPLQPPTATISGLKPGVDYTITVYAVTDGRNGRLLSIPISINYRT .
7.67

Specify measured pIC50 for C7-SL1-LL2-His (designed binder, not shown: small tags and cut ends, Designed disulfide bonds Cys8-Cys89 and Cys17-Cys60., His-tagged C7 variant with two introduced disulfide bonds) VSDVPRDCEVVAATPTCLLISWRHPHFPTRYYRITYGETGGNSPVQEFTVPLQPPTATICGLKPGVDYTITVYAVTDGRNGRLLSIPICINYRT .
7.89

New cases:
Specify measured pIC50 for C7-LL4-His (designed binder, not shown: small tags and cut ends, Designed disulfide bond between Cys63 and Cys66., His-tagged C7 variant with one introduced disulfide bond) VSDVPRDLEVVAATPTSLLISWRHPHFPTRYYRITYGETGGNSPVQEFTVPLQPPTATISGLCPGCDYTITVYAVTDGRNGRLLSIPISINYRT .
7.78
